Tested on: HCC1569;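 further: TDF is a line of transformed human dermal fibroblasts of mesenchymal origin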
Experiment: H1.0 immunofluorescence intensity relative to DMSO (% of DMSO); higher = stronger H1.0 induction, active = 140 or more
Conditions: concentration: 10 µM; 24 h
Outcomes: True for active, False for inactive

# COMPOUND, LABEL
measured = [
    ("Cl.Cl.O=S(=O)(NCCNCC=Cc1ccc(Br)cc1)c1cccc2cnccc12 [H-89, Dihydrochloride]", "False"),
    ("COC(=O)C(c1ccccc1Cl)N1CCc2sccc2C1 (stereo not given)", "False"),
    ("CCC(NC(C)C)C(O)c1ccc(O)c2[nH]c(=O)ccc12.Cl (stereo not given) [Procaterol.HCl]", "False"),
    ("CCOC(=O)C(CCc1ccccc1)NC(C)C(=O)N1C(C(=O)O)CC2CCCC21 (stereo not given)", "False"),
    ("O=C(O)c1ccccc1Nc1cccc(OCc2ccc3ccccc3n2)c1", "False"),
    ("CCN1CCCC1CNC(=O)c1cc(S(N)(=O)=O)ccc1OC (single isomer, unassigned; (-)) [(-)-Sulpiride]", "False"),
    ("N[C@H](C(=O)O)c1cccc(O)c1 [(S)-3-Hydroxyphenylglycine]", "False"),
    ("CC(C)(O)c1ccccc1CCC(SCC1(CC(=O)O)CC1)c1cccc(C=Cc2ccc3ccc(Cl)cc3n2)c1 (stereo not given)", "False"),
    ("CC(NC(=O)CCc1nc(=O)c2ccccc2[nH]1)c1ccccc1 (stereo not given)", "False"),
    ("CCC(C)(C)c1ccc(CC(C)CN2CC(C)OC(C)C2)cc1 (stereo not given)", "False"),
    ("COc1ccccc1O", "False"),
    ("NCCS(=O)(=O)O", "False"),
    ("Cl.NC(N)=NC(=O)c1nc(Cl)c(N)nc1N [Amiloride hydrochloride]", "False"),
    ("Nc1ncnc2c1cnn2-c1ccccc1", "False"),
    ("Cc1oncc1C(=O)Nc1ccc(C(F)(F)F)cc1 [Leflunomide]", "False"),
    ("CCC(C)C(O)C(C)C(=O)C(C)C=C(C)CC(C)C1OC(=O)C1CC (stereo not given)", "False"),
    ("OCC(CO)(CO)NCC(O)Cn1c2ccc(Cl)cc2c2cc(Cl)ccc21 (stereo not given)", "True"),
    ("CCCCCC=CCC=CCC1OC1CC=CCCCC(=O)O (stereo not given)", "False"),
    ("COc1ccc(C2Sc3ccccc3N(CCN(C)C)C(=O)C2OC(C)=O)cc1 (stereo not given)", "False"),
    ("CN(C)CCCn1cc(C2=C(c3c[nH]c4ccccc34)C(=O)NC2=O)c2ccccc21", "False"),
    ("CCCCCC=CCC=CCCCCCCCCCC(=O)O", "False"),
    ("O=C(O)c1cc(=O)c2ccc(Cl)cc2[nH]1", "False"),
    ("O=C1NC(=O)C(=Cc2cccc(C(F)(F)F)c2)S1", "False"),
    ("CCCc1nn(C)c2c(=O)nc(-c3cc(S(=O)(=O)N4CCN(C)CC4)ccc3OCC)[nH]c12", "False"),
    ("CN1CCN(C2=Nc3cc(F)ccc3Cc3ccccc32)CC1", "False"),
    ("CC(C)Cn1cnc2c(N)nc3ccccc3c21", "False"),
    ("CCc1ccc(CCOc2ccc(CC3SC(=O)NC3=O)cc2)nc1 (stereo not given)", "False"),
    ("O=C(c1ccc(OCCN2CCCCC2)cc1)c1c(-c2ccc(O)cc2)sc2cc(O)ccc12", "False"),
    ("COc1ccc(-c2cc(=O)c3c(O)cc(O)cc3o2)cc1", "False"),
    ("O=c1cc(N2CCOCC2)nc2c3ccccc3ccn12", "False"),
    ("N#Cc1c(-c2ccccc2)no[n+]1[O-]", "False"),
    ("Nc1nc2ccc(Cl)cc2c2nc(-c3ccco3)nn12", "False"),
    ("N[C@@H](Cc1cc(I)c(Oc2cc(I)c(O)c(I)c2)c(I)c1)C(=O)O", "False"),
    ("COc1cc2c3cc1Oc1cc(ccc1O)CC1c4c(cc(OC)c(O)c4Oc4ccc(cc4)CC3N(C)CC2)CC[N+]1(C)C.Cl.[Cl-] (single isomer, unassigned; (+)) [(+)-Tubocuraraine chloride]", "False"),
    ("CC12CCC(=O)C=C1CCC1C2CCC2(C)C1CCC2(O)C(=O)CO (stereo not given) [Cortexolone]", "False"),
]

###

Tested on: HCC1569;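 further: TDF is a line of transformed human dermal fibroblasts of mesenchymal origin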
Assay: H1.0 immunofluorescence intensity relative to DMSO (% of DMSO); higher = stronger H1.0 induction, active = 140 or more
Settings: concentration: 10 µM; 24 h
Outcomes: active, inactive

# COMPOUND, TESTED_SYSTEM, LABEL
records = [
    ("Cc1ccc(C)c(OCCCC(C)(C)C(=O)O)c1", "HCC1569", "inactive"),
    ("CCOC(=O)C(C)(C)Oc1ccc(Cl)cc1 [Clofibrate]", "HCC1569", "inactive"),
    ("Cl.O=c1cc(N2CCOCC2)oc2c(-c3ccccc3)cccc12", "HCC1569", "active"),
    ("O=C(O)CCc1nc(-c2ccccc2)c(-c2ccccc2)o1", "HCC1569", "inactive"),
    ("COc1ccc(C2CC(=O)c3c(O)cc(O)cc3O2)cc1O (centres undefined)", "HCC1569", "inactive"),
    ("C=CCCCCCCCCCC(=O)O", "HCC1569", "inactive"),
    ("O=C(CCN1CCN(C(=O)OCc2cc(Cl)cc(Cl)c2)CC1)c1ccc2[nH]c(=O)oc2c1", "HCC1569", "active"),
    ("CC(CN(C)C)CN1c2ccccc2CCc2ccccc21.O=C(O)C=CC(=O)O (centres undefined) [Trimipramine maleate]", "HCC1569", "inactive"),
    ("Cc1nnc(SCC2=C(C(=O)[O-])N3C(=O)C(NC(=O)Cn4cnnn4)C3SC2)s1.[Na+] (centres undefined) [Cefazolin sodium]", "HCC1569", "inactive"),
]

###

Test system: HCC1569;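 further: TDF is a line of transformed human dermal fibroblasts of mesenchymal origin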
Experiment: H1.0 immunofluorescence intensity relative to DMSO (% of DMSO); higher = stronger H1.0 induction, active = 140 or more
Conditions: concentration: 10 µM; 24 h
Outcomes: active, inactive

# MOLECULE, LABEL
measured = [
    ("CCC1(C)CC(=O)NC1=O (centres undefined) [Ethosuximide]", "inactive"),
    ("CC(COc1ccccc1)N(CCCl)Cc1ccccc1.Cl (centres undefined) [Phenoxybenzamine hydrochloride]", "inactive"),
    ("O=C(O)c1cc(=O)c2c(Cl)cc(Cl)cc2[nH]1", "inactive"),
    ("CN(C)C(=O)N=NC(=O)N(C)C [N,N,N',N'-Tetramethylazodicarboxamide]", "inactive"),
    ("N#CC(=Cc1ccc(O)c(O)c1)C(=O)OCC=Cc1ccccc1", "inactive"),
    ("Cc1ccc(=O)n(-c2ccccc2)c1", "inactive"),
    ("COC1=CC(=O)CC(C)C12Oc1c(Cl)c(OC)cc(OC)c1C2=O (single isomer, unassigned; (+)) [(+)-Griseofulvin]", "inactive"),
    ("COC(=O)Nc1nc2ccc(Sc3ccccc3)cc2[nH]1", "active"),
    ("CC(N)C1CCC(C(=O)Nc2ccncc2)CC1.Cl.Cl (centres undefined)", "inactive"),
]

###

Tested on: TDF;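 further: TDF denotes transformed human dermal fibroblasts of mesenchymal origin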
Assay: cell number relative to DMSO (% of DMSO); higher = more cells (less growth inhibition / toxicity)
Conditions: concentration: 10 µM; 24 h

# COMPOUND, cell number
rows = [
    ("CC=C1C2C=C(C)CC1(N)c1ccc(=O)[nH]c1C2 (single isomer, unassigned; (-)) [(-)-Huperazine]", 100),
    ("CC1=C(C(=O)O)N2C(=O)C(NC(=O)C(N)C3=CCC=CC3)C2SC1 (stereo not drawn) [Cephradine]", 115),
    ("Cc1ncc(Cl)cc1NCc1ccc(C(=O)N[C@@H](CC2CCCC2)C(=O)NC2CC2)s1", 96.1),
    ("CCCCCC#CCC(O)C=CC=CC=CC(O)CCCC(=O)O (stereo not drawn) [14,15-Dehydroleukotriene B4]", 96.7),
    ("O=C(Nc1cccc2c(=O)cc(-c3nn[nH]n3)oc12)c1ccc(OCCCCc2ccccc2)cc1 [Pranlukast]", 110),
    ("COc1cc2nc(N3CCN(C(=O)c4ccco4)CC3)nc(N)c2cc1OC.Cl [Prazosin.HCl]", 105),
    ("COC(=O)C1C(O)CCC2CN3CCc4c([nH]c5ccccc45)C3CC21.Cl (stereo not drawn) [Rauwolscine hydrochloride]", 117),
    ("CN1CCN(CC(=O)N2c3ccccc3C(=O)Nc3cccnc32)CC1.Cl.Cl [Pirenzepine dihydrochloride]", 121),
    ("C=C1CC2C3C=C(C)C4=CC(=O)CCC4(C)C3CCC2(C)C1(OC(C)=O)C(C)=O (stereo not drawn) [Melengestrol Acetate]", 103),
    ("CC(COc1ccccc1)N(CCCl)Cc1ccccc1.Cl (stereo not drawn) [Phenoxybenzamine hydrochloride]", 69.5),
    ("COC(=O)C(Cc1ccc(OCCn2c(=O)sc3cc(C(=O)c4ccccc4)ccc32)cc1)C(=O)OC", 91.8),
    ("COc1ccc(C2CC(=O)c3c(O)cc(OC4OC(CO)C(O)C(O)C4OC4OC(C)C(O)C(O)C4O)cc3O2)cc1O (stereo not drawn) [Neohesperidin]", 104),
    ("CC1OC(n2cc(F)c(=O)[nH]c2=O)C(O)C1O (stereo not drawn) [Doxifluridine]", 107),
    ("CCCCCCC=CCCCCCCCC(=O)O [9(Z)-Hexadecenoic acid]", 104),
    ("CC(N)=NCc1cccc(CN)c1.Cl.Cl [1400W dihydrochloride]", 119),
    ("COCCOC(=O)C1=C(C)NC(C)=C(C(=O)OC(C)C)C1c1cccc([N+](=O)[O-])c1 (stereo not drawn) [Nimodipine]", 106),
    ("Cn1c(NCCN(CCO)CCCc2ccc([N+](=O)[O-])cc2)cc(=O)n(C)c1=O [Nifekalant]", 99.4),
    ("O=c1[nH]c(=O)n(C2CCCO2)cc1F (stereo not drawn) [Ftorafur]", 102),
    ("Cc1ccc([N+](=O)[O-])cc1S(=O)(=O)N(C)N=Cc1cnc2ccc(Br)cn12", 11.6),
    ("CCCCCCCCC=CCCCCCCCC(=O)NCCc1ccc(O)c(O)c1 [Oleoyl dopamine]", 88.4),
    ("Cc1ccc(S(=O)(=O)NC(Cc2ccccc2)C(=O)CCl)cc1 [N-p-Tosyl-L-phenylalanine chloromethyl ketone]", 84.6),
    ("COc1cc2ncnc(Nc3ccc(Cl)cc3Cl)c2cc1OC [Ste11 MAPKKK Activation Inhibitor]", 97.5),
    ("Cn1cnc2c(F)c(Nc3ccc(Br)cc3Cl)c(C(=O)NOCCO)cc21", 91.8),
    ("O=c1ncnc2[nH][nH]cc1-2 [Allopurinol]", 109),
    ("CC1=CCC2(C)CCC(O)(C(C)C)C2C(OC(=O)c2ccc(O)cc2)C1 (stereo not drawn) [Ferutinin]", 102),
    ("COc1cc2c(cc1OC)C1C(C)c3ccc(OC)c(OC)c3CN1CC2 (stereo not drawn) [Corydaline]", 106),
    ("NC(=O)c1ccc(-c2nc(-c3ccc4c(c3)OCCO4)c(-c3ccccn3)[nH]2)cc1", 108),
    ("CCCCCCCCCCCCCCCCCC(=O)NCC(COP(=O)([O-])OCC[N+](C)(C)C)OCC (racemic) [rac-2-Ethoxy-3-octadecanamido-1-propylphosphocholine]", 54.4),
    ("O=C1NC(=O)C(c2cn(CCCn3ccnc3)c3ccccc23)=C1Nc1ccccc1 [PKCb Inhibitor]", 113),
    ("Cc1ccc(F)c(NC(=O)Nc2ccc(-c3cccc4[nH]nc(N)c34)cc2)c1", 90.1),
    ("CCN(CC)CCCC(C)Nc1cc(/C=C/c2ccccc2Cl)nc2cc(Cl)ccc12 (stereo not drawn)", 1.01),
    ("CCC=CCC=CCC=CCC=CCC=CCC=CCCC(=O)OC(COCCCCCCCCCCCCCCCC)COP(=O)([O-])OCC[N+](C)(C)C (stereo not drawn)", 100),
    ("Nc1[nH]nc2nnc(-c3c(-c4ccccc4)nn4ccccc34)cc12", 100),
]
